target: α1B Human Adrenergic Receptor (Homo sapiens, UniProt P35368); construct: The entire coding region of a1B (1563 bp); expressed in transfected cells; assay: Radioligand binding, [3H]prazosin displacement, cloned human α1B receptor (LM(tk-) cell membranes); conditions: [3H]prazosin 0.5 nM, 37° C., 20 min, read-out: hα1B pKi (converted)
Sequence (P35368 whole entry): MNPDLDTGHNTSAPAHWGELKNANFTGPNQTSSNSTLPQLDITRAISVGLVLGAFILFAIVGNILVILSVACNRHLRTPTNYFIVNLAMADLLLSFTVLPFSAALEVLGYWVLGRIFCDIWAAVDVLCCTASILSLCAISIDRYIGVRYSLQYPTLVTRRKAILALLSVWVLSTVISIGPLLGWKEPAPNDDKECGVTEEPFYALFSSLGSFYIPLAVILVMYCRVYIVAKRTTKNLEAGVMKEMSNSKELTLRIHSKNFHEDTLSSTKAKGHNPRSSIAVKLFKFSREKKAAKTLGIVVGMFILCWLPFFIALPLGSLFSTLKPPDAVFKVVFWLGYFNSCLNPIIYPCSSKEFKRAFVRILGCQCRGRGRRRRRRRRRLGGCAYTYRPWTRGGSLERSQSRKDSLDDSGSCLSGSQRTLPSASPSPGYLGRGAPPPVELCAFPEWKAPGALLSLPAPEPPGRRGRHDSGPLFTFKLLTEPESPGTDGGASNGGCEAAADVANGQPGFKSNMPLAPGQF
Structures can show the parent of a compound that is named as a salt.
endpoint.name: log10 of Ki (log10 of the value in nM)
Give log10 of Ki, with Ki taken in nM.

Guide cases for log10 of Ki, answers given:
{"compound": "COCC1=C(C(=O)OC)C(c2ccc(F)c(F)c2)N(C(=O)NCCN[C@H]2CC[C@](C(=O)OC)(c3ccccc3)CC2)C(=O)N1 (single isomer, unassigned; (+)) [Example 11, hydrochloride]", "endpoint.name": "log10 of Ki", "recorded.result": 1.44}
{"compound": "COCC1=C(C(=O)OC)C(c2ccc(F)c(F)c2)N(C(=O)NCCN[C@H]2CC[C@@](C#N)(c3ccccc3)CC2)C(=O)N1 (single isomer, unassigned; (+)) [Example 5, hydrochloride]", "endpoint.name": "log10 of Ki", "recorded.result": 1.43}
{"compound": "CCC1=C(C(N)=O)C(c2ccc(F)cc2F)N(C(=O)NCCN[C@H]2CC[C@](C#N)(c3ccccc3)CC2)C(=O)N1 (single isomer, unassigned; (+)) [Example 3, hydrochloride]", "endpoint.name": "log10 of Ki", "recorded.result": 2.00}

Would you be so kind as to report log10 of Ki for each listed record?
1. COCC1=C(C(=O)OC)C(c2ccc(F)c(F)c2)N(C(=O)NCCN[C@H]2CC[C@H](c3ccccn3)CC2)C(=O)N1 (single isomer, unassigned; (+)) [Example 7, hydrochloride]
2. COCC1=C(C(=O)OC)C(c2ccc(F)c(F)c2)N(C(=O)NCCN[C@H]2CC[C@](C#N)(c3ccccc3)CC2)C(=O)N1 (single isomer, unassigned; (+)) [Example 4, hydrochloride]
3. COC(=O)C1=C(C)NC(=O)N(C(=O)NCCN[C@H]2CC[C@](C#N)(c3ccccc3F)CC2)C1c1ccc(F)c(F)c1 (single isomer, unassigned; (+)) [Example 13, hydrochloride]
4. COCC1=C(C(=O)OC)C(c2ccc(F)c(F)c2)N(C(=O)NCCN[C@H]2CC[C@](C#N)(c3ccccn3)CC2)C(=O)N1 (single isomer, unassigned; (+)) [Example 14, hydrochloride]

Result ::
1. 3.05
2. 1.27
3. 1.13
4. 2.45
